B1: MNAT1 (parent)
chain: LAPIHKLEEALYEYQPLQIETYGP

Variants of: B1
Test: protein stability index of a GFP-peptide fusion (GPS, HEK-293T) (PSI 1-6); higher = more stable;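 further: lentivirally expressed fusions sorted by FACS into six bins by GFP to DsRed ratio, PSI derived from sequencing read proportions per bin multiplied by bin number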
Conditions: c terminus: a fixed tail appended
recorded_metric: protein stability index

biopolymer_sequence	observed
LAPIHKLEEALYEYQPLQIETYQP [G23Q]	2.02
TAPIHKLEEALYEYQPLQIETYGP [L1T]	2.33
LAPIHKLEEALYEYQPLQIELYGP [T21L]	3.23
LAPIHKLEEALYYYQPLQIETYGP [E13Y]	1.61
LAPIHKLEEALYEYQPLQIETYLP [G23L]	2.56
LAPINKLEEALYEYQPLQIETYGP [H5N]	2.21
LAPIHKLEEALYEYQDLQIETYGP [P16D]	2.86
LAPIHKLEEALYEYDPLQIETYGP [Q15D]	2.94
LAPIHKLEEALYEHQPLQIETYGP [Y14H]	3.32
LAPIHKLEEALYEYQPLQIETYHP [G23H]	2.67
LAPIHKTEEALYEYQPLQIETYGP [L7T]	3.33
